Provenance of the data: ChEMBL document CHEMBL1127749

Molecular target: Muscarinic acetylcholine receptor
Assay: In vitro binding affinity for muscarinic receptor by displacing [3H]quinuclidinyl benzilate binding on rat brain stem homogenate.
Assay type: tissue-based
Form field: log10(Ki) (one value per entry).
All values: log10 Ki [nM].

{"columns": ["compound", "study.target", "log10(Ki)"],
 "data": [
  ["CCCn1ncc(C2=CCCNC2)n1", "Muscarinic acetylcholine receptor", 2.32]
]}

Under Muscarinic acetylcholine receptor: log10(Ki) value of C#CCn1nnc(C2=CCCN(C)C2)n1 ?
2.00

# query: log10(Ki) | item CCCCCCCCn1nnc(C2=CCCN(C)C2)n1 | system: Muscarinic acetylcholine receptor
1.88

What log10(Ki) appears in the records for this compound with Muscarinic acetylcholine receptor? CCCn1ncc(C2=CCCN(C)C2)n1
1.58

Query the reported log10(Ki) for Muscarinic acetylcholine receptor; item: C=CCn1ncc(C2=CCCN(C)C2)n1
1.51

* * *

Catalogue of EC50 values
Target: Muscarinic acetylcholine receptor M3 (Cavia porcellus)
Experiment: In vitro ability to contract isolated guinea pig ileum was used to estimate M2/M3 agonist effect
Assay type: functional, tissue-based

{"columns": ["compound", "study.target", "EC50"],
 "data": [
  ["C[N+](C)(C)CC#CCOC(=O)Nc1cccc(Cl)c1.[Cl-]", "Muscarinic acetylcholine receptor M3 (Cavia porcellus)", "6.5 µM"]
]}

Please tell me: EC50 of C=CCn1ncc(C2CCCNC2)n1 (racemic) , system Muscarinic acetylcholine receptor M3 (Cavia porcellus)?
4.4 µM

* * *

Target: Muscarinic acetylcholine receptor M1 (Rattus norvegicus, UniProt P08482)
Sequence (P08482 whole entry): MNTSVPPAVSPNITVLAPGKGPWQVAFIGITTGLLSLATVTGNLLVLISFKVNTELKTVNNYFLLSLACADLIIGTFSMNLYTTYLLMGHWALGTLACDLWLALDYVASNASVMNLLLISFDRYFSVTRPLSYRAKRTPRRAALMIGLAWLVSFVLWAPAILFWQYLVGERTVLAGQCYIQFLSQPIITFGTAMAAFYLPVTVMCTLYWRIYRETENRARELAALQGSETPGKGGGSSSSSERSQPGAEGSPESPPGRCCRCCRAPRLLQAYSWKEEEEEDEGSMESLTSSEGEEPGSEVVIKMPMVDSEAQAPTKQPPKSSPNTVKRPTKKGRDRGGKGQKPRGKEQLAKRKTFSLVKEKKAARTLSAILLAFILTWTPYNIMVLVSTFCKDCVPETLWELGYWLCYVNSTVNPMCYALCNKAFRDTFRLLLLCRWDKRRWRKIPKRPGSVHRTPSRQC
Satisfied if Ki is below 0.3 µM. Not satisfied if not; exact matches included in Not satisfied.

{"columns": ["compound", "assigned.category"],
 "data": [
  ["CCCCCCCn1nnc(C2=CCCN(C)C2)n1", "Satisfied"],
  ["CCn1nnc(C2=CCCNC2)n1", "Not satisfied"],
  ["C=CCn1nnc(C2=CCCN(C)C2)n1", "Satisfied"]
]}

Below 0.3 µM on Ki? Entry CCn1nncc1C1=CCCN(C)C1
Not satisfied

* * *

Molecular target: Muscarinic acetylcholine receptor M2 (Mus musculus) (UniProt Q9ERZ4)
Assay: In vivo determination of peripheral M2 receptor mediated salivation, cholinergic side effect
Measured ED50 accompanies every entry in the list below.
Hi! Could you send only the number? It should be in µmol/kg, unit omitted.

Past entries and their recorded results:
{"columns": ["molecule", "experimental.value"],
 "data": [
  ["C#CCn1ncc(C2CCCNC2)n1 (single isomer, unassigned; (+))", 7],
  ["C=CCn1ncc(C2CCCNC2)n1 (racemic)", 320],
  ["C#CCn1ncc(C2CCCNC2)n1 (stereo in doubt; (-)-15c)", 20]
]}

For the next question, use this molecule.
Recorded ED50 for C#CCn1ncc(C2CCCNC2)n1 (racemic) , please?
8.1

* * *

Molecular target: Muscarinic acetylcholine receptor M3 (Cavia porcellus)
Flag rule - EC50 less than 800 nM flags T; the remaining entries get F.

Some solved cases for reference:
{"columns": ["compound", "assigned.category"],
 "data": [
  ["CCN1C(=O)CC2(CCN(C)CC2)C1=O", "T"],
  ["CCn1ncc(C2=CCCN(C)C2)n1", "F"],
  ["CN1CCC=C(c2cnn(C)n2)C1", "T"],
  ["C=CCn1ncc(C2CCCNC2)n1 (single isomer, unassigned; (+))", "F"]
]}

# evaluate next
Item CCn1ncc(C2=CCCNC2)n1 : EC50 beneath 800 nM, strictly?
T

* * *

# Ratio per record follows
Organism: Rattus norvegicus
Test: Ratio of binding affinity at [3H]quinuclidinyl benzilate binding on rat brain stem homogenate to [3H]pirenzepine binding on rat brain homogenate

Guide cases for Ratio, answers given:
{"columns": ["compound", "Ratio"],
 "data": [
  ["C#CCn1nnc(C2=CCCN(C)C2)n1", 2.3],
  ["CCCn1nnc(C2=CCCN(C)C2)n1", 3.2],
  ["CCCn1ncc(C2=CCCNC2)n1", 2.7],
  ["CCCCn1ncc(C2=CCCNC2)n1", 1.3]
]}

Recorded Ratio for CCCCCCn1nnc(C2=CCCN(C)C2)n1 , please?
6.9

Quick one: Ratio of C#CCn1ncc(C2CCCNC2)n1 (stereo in doubt; (-)-15c) ?
0.2

Report Ratio for C=CCn1ncc(C2CCCNC2)n1 (single isomer, unassigned; (+)) please.
1.6

Consider the compound CCCCCCCn1nnc(C2=CCCN(C)C2)n1 and give its measured Ratio.
4.3

Return reported Ratio; argument: CCn1ncc(C2=CCCNC2)n1
1.4

# get_value(readout='Ratio', item= C=CCn1nnc(C2=CCCN(C)C2)n1 )
2.2

* * *

Reported ED50 values for the following compounds.
Target: Muscarinic acetylcholine receptor M2 (Mus musculus) (UniProt Q9ERZ4)
Assay: In vivo determination of peripheral M2 receptor mediated hypothermia, cholinergic side effect

{"columns": ["compound", "study.target", "experimental.value"],
 "data": [
  ["C=CCn1ncc(C2CCCNC2)n1 (single isomer, unassigned; (+))", "Muscarinic acetylcholine receptor M2 (Mus musculus) (UniProt Q9ERZ4)", "> 260 µmol/kg"]
]}

Look at this compound and give its reported ED50. C=CCn1ncc(C2CCCNC2)n1 (stereo in doubt; (-)-15b)
> 130 µmol/kg

Look up ED50: C=CCn1ncc(C2CCCNC2)n1 (racemic)
> 350 µmol/kg

// ED50 lookup, key: C#CCn1ncc(C2CCCNC2)n1 (stereo in doubt; (-)-15c)
11 µmol/kg

I am curious: what ED50 value has been reported for C#CCn1ncc(C2CCCNC2)n1 (single isomer, unassigned; (+)) ?
23 µmol/kg

// lookup ED50 for C[N+](C)(C)CC#CCOC(=O)Nc1cccc(Cl)c1.[Cl-]
> 63 µmol/kg

Please give the measured ED50 for this compound: CCn1nnc(C2=CCCN(C)C2)n1
> 120 µmol/kg

Bench note: what ED50 did C#CCn1ncc(C2CCCNC2)n1 (racemic) show?
10 µmol/kg

* * *

Target: Muscarinic acetylcholine receptor
Experiment: In vitro binding affinity for muscarinic receptor by displacing [3H]quinuclidinyl benzilate binding on rat brain homogenate
Type: tissue-based
quantity: log10 of Ki (log10 of the value in nM)
A difference of one corresponds to tenfold Ki; all values are log10 with Ki in nM.

{"columns": ["compound", "quantity", "experimental.value"],
 "data": [
  ["CC(C)n1nnc(C2=CCCN(C)C2)n1", "log10 of Ki", 2.72],
  ["CCN1C(=O)CC2(CCN(C)CC2)C1=O", "log10 of Ki", 2.84],
  ["C=CCn1nnc(C2=CCCN(C)C2)n1", "log10 of Ki", 2.15],
  ["CCCCCCCCn1nnc(C2=CCCN(C)C2)n1", "log10 of Ki", 1.58],
  ["CCCCCCCn1nnc(C2=CCCN(C)C2)n1", "log10 of Ki", 2.15],
  ["C=CCn1ncc(C2CCCNC2)n1 (stereo in doubt; (-)-15b)", "log10 of Ki", 2.72]
]}

What value of log10 of Ki has been recorded for this entry: C#CCn1ncc(C2=CCCN(C)C2)n1
1.61

* * *

Ratio values, listed per item
Species: Rattus norvegicus
Experiment: Ratio of binding affinity at [3H]quinuclidinyl benzilate binding on rat brain homogenate to [3H]- Oxotremorine-M binding on rat brain homogenate
Type: functional
Give the figure only, with no unit attached.

{"columns": ["compound", "experimental.value"],
 "data": [
  ["C#CCn1ncc(C2CCCNC2)n1 (single isomer, unassigned; (+))", 44],
  ["CN1CCC=C(c2nnn(C)n2)C1", 130]
]}

Look up Ratio: C#CCn1ncc(C2CCCNC2)n1 (racemic)
130

Sample CCn1ncc(C2CCCNC2)n1 (racemic) — what was its Ratio?
48

Recorded Ratio of C#CCn1nnc(C2=CCCN(C)C2)n1 , please.
51

I have this compound here, CN1CCC=C(c2cnn(C)n2)C1 , and I need its recorded Ratio.
360

Using the record for Cn1ncc(C2=CCCNC2)n1 , report its Ratio.
1700

I have this compound here, CCCCCCCCn1nnc(C2=CCCN(C)C2)n1 , and I need its recorded Ratio.
0.5
